I'd be grateful if you could share measured kd, huCD98 ECD for these entries.
Target: T1, human CD98 ECD (huCD98 ECD) (Homo sapiens, UniProt P08195)
T1 construct: His6 (with AAA linker) (C)
T1 sequence (P08195 with tags, fused parts or gaps): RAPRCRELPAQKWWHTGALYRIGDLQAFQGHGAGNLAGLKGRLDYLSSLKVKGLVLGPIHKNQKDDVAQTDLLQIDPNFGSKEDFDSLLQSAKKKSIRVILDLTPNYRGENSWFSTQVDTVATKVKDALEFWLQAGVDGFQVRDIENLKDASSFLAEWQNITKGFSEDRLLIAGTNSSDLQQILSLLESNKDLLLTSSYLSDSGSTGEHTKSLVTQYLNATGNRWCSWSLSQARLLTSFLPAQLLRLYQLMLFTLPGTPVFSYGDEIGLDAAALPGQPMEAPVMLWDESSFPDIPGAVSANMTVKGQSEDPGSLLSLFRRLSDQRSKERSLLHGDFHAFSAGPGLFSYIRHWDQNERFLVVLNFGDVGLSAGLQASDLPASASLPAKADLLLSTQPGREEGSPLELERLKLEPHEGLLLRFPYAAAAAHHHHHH
Experiment: Biacore surface plasmon resonance binding kinetics, anti-Fc capture
Details: framework re-engineered mAbs, Table 24
Give bare numbers, in s⁻¹.

# example entries with known answers
# MOLECULE, MEASUREMENT_UNITS, VALUE_REPORTED
records = [
    ("huAb101: humanized framework engineered anti-CD98 antibody; heavy chain variable SEQ ID NO: 106, light chain variable SEQ ID NO: 107 (antibody, V domains shown) VH: EVQLVESGGGLVKPGGSLRLSCATSGFTFIDYYMSWVRQAPGKGLEWLGFIRNKANRYTTEYSASVKGRFTISRDNSKSILYLQMNSLKTEDTAVYYCTRDRPAWFVYWGQGTLVTVSS VL: DIVMTQTPLSLPVTPGEPASISCKSSQSLLYSSNQKNYLAWYLQKPGQSPQLLIYWASTRESGVPDRFSGSGSGTDFTLKISRVEAEDVGVYYCQQYYSYPYTFGGGTKVEIK", "s⁻¹", 0.0018),
    ("huAb105: humanized framework engineered anti-CD98 antibody; heavy chain variable SEQ ID NO: 111, light chain variable SEQ ID NO: 112 (antibody, V domains shown) VH: EVQLVESGGGLVQPGGSLRLSCAASGFTFSDYTMAWVRQAPGKGLEWVATIIYSGRGTYYRDAVKGRFTISRDNAKNTLYLQMNSLRAEDTAVYYCARQSDHTYYYWGYFDYWGQGTMVTVSS VL: DIVMTQTPLSLPVTPGEPASINCKSSQSLLFSGNQKNYLAWYLQKPGQSPQLLIYWASTRQSGVPDRFSGSGSGTDFTLKISRVEAEDVGIYYCQQYYDVPYTFGQGTKLEIK", "s⁻¹", "2.4e-05"),
]

For the 3 molecules below, give their kd, huCD98 ECD values.
1. huAb107: humanized framework engineered anti-CD98 antibody; heavy chain variable SEQ ID NO: 114, light chain variable SEQ ID NO: 112 (antibody, V domains shown) VH: EVQLVESGGGLVQPGGSLRLSCAASGFTFSDYTMAWVRQAPGKGLEWVATIIYSGRGTYYRDAVKGRFTISRDNAKNTLYLQMNSLRAEDTAVYYCARQSDDTYYYWGYFDYWGQGTMVTVSS VL: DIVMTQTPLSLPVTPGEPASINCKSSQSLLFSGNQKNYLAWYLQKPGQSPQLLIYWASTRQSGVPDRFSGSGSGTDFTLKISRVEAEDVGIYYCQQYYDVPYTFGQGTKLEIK
2. huAb103: humanized framework engineered anti-CD98 antibody; heavy chain variable SEQ ID NO: 109, light chain variable SEQ ID NO: 107 (antibody, V domains shown) VH: EVQLVESGGGLVKPGGSLRLSCATSGFTFIDYYMSWVRQAPGKGLEWLGFIRNKAYGYTTEYSASVKGRFTISRDNSKSILYLQMNSLKTEDTAVYYCTRDRPAWFVYWGQGTLVTVSS VL: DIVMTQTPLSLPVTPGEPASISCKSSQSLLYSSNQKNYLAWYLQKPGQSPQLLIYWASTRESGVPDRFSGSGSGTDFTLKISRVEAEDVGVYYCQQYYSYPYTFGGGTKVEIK
3. huAb109: humanized framework engineered anti-CD98 antibody; heavy chain variable SEQ ID NO: 116, light chain variable SEQ ID NO: 117 (antibody, V domains shown) VH: EVQLVESGGGLVQPGGSLRLSCAASGFTFSDYTMAWVRQAPGKGLEWVATIIYDARGTYYRDAVKGRFTISRDNAKNTLYLQMNSLRAEDTAVYYCARQSDDTYYYWGYFDYWGQGTMVTVSS VL: DIVMTQTPLSLPVTPGEPASINCKSSQSLLFSGNQKNYLAWYLQKPGQSPQLLIYWASTRQSGVPDRFSGSGSGTDFTLKISRVEAEDVGIYYCQQYYSSPYTFGQGTKLEIK

Reply:
1: 3.8e-05; 2: 0.00059; 3: 0.00017

Attribution: patent US20200002432A1
